Target system: PD-L1 His protein / PD-1 Fc protein (Homo sapiens (Human), UniProt Q9NZQ7)
Sequence (Q9NZQ7 19-238): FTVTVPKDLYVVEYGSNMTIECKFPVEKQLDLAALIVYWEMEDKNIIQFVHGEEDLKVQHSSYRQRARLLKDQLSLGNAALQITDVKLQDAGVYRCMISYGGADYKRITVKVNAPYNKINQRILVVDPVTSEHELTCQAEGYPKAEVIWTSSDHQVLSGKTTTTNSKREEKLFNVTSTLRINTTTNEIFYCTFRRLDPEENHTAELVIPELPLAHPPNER
Assay notes: HTRF Assay (PD-1/PD-L1 interaction)
Assay type: binding
Condition parameters: PD-L1 His 6 nM, PD-1 Fc 6 nM

{"columns": ["Mol", "IC50 [nM]"],
 "data": [
  ["COc1nc(-c2cccc(-c3ccnc(-c4ccc5c(CNCC(C)C)cn(C)c5c4)c3Cl)c2Cl)ccc1CNC[C@@H]1CCC(=O)N1", 116],
  ["COc1cc(-c2nccc(-c3cccc(NC(=O)c4ccc(CNCCO)cn4)c3Cl)c2Cl)ccc1CNCCO", 0.1],
  ["COc1cc(-c2nccc(-c3cccc(-c4ccc(CNC[C@@H]5CCC(=O)N5)c(OC)n4)c3Cl)c2Cl)cc(F)c1CNCCCF", 1.96],
  ["COc1cc(-c2nccc(-c3cccc(-c4ccc(CN5CC(C(C)(C)O)C5)c(OC)n4)c3Cl)c2Cl)ccc1CN1CC(C(C)(C)O)C1", 4.63],
  ["COc1cc(-c2nccc(-c3cccc(-c4ccc(CNC[C@H]5CNC(=O)C5)c(OC)n4)c3Cl)c2Cl)ccc1CNC[C@H]1CNC(=O)C1", 0.237],
  ["COc1nc(-c2cccc(-c3ccnc(-c4cc(Cl)c5c(c4)CCN(CC4CCN(C(C)=O)CC4)C5)c3Cl)c2Cl)ccc1CNC[C@@H]1CCC(=O)N1", 2.95]
]}

###

Target system: UniProt:Q9NZQ7
Assay notes: T cell activation luciferase reporter cell culture system (T Cell Activation Assay)
Assay type: cell-based
Condition parameters: luciferase reporter assay; PD-L1 aAPC/CHO-K1 cells with PD-1 effector Jurkat T cells
pEC50: −log10 of the molar value.

{"columns": ["Mol", "Inequality symbol", "pEC50"],
 "data": [
  ["COc1nc(-c2cccc(-c3ccnc(-c4cc(OC)c5nc(CN6CC(C)(O)C6)nn5c4)c3Cl)c2Cl)ccc1CNC1CCN(C(C)=O)CC1", "=", 6.93],
  ["COc1cc(-c2nccc(-c3cccc(-c4ccc(CNC[C@@H]5CCC(=O)N5)c(OC)n4)c3Cl)c2Cl)ccc1CNCCO", "=", 7.31],
  ["COc1nc(-c2cccc(-c3ccnc(-c4ccn5c(=O)c(CNC[C@@H]6CCC(=O)N6)cnc5c4)c3Cl)c2Cl)ccc1CNC[C@@H]1CCC(=O)N1", "=", 7.06],
  ["COc1cc(-c2nccc(-c3cccc(-c4ccc5c(CN(C)C6CCN(C(C)=O)CC6)cn(C)c5n4)c3Cl)c2Cl)ccc1CNC[C@@H]1CCC(=O)N1", "=", 8.00],
  ["COc1cc(-c2nccc(-c3cccc(-c4ccc(CN5CC6(CNC(=O)C6)C5)c(OC)n4)c3Cl)c2Cl)cnc1CNC1CCN(C(C)=O)CC1", "=", 7.16],
  ["COc1cc(-c2nccc(-c3cccc(-c4ccc(CNC(C)C)c(OC)n4)c3Cl)c2Cl)ccc1CNC(C)C", "=", 7.02],
  ["COc1cc(-c2nccc(-c3cccc(-c4ccc(CN5CC6(CNC(=O)C6)C5)c(OC)n4)c3Cl)c2Cl)ccc1CN1CC2(CNC2)C1", "=", 7.21],
  ["CNCc1ccc(-c2nccc(-c3cccc(-c4ccc(CNC)c(OC)n4)c3C)c2Cl)cc1OC", "=", 7.09],
  ["COc1nc(-c2cccc(-c3ccnc(-c4cc5c(=O)n(C)c(CN6CC(C)(O)C6)nn5c4)c3Cl)c2Cl)ccc1CN[C@H]1C[C@](C)(O)C1", "=", 6.99],
  ["COc1cc(-c2nccc(-c3cccc(-c4ccc(CN5CC6(CCC(=O)N6)C5)c(OC)n4)c3Cl)c2Cl)ccc1CN1CCC(NC(C)=O)CC1", "=", 7.69],
  ["COc1cc(-c2nccc(-c3cccc(-c4ccc5c(CNC6CCN(C(C)=O)CC6)cn(C)c5n4)c3Cl)c2Cl)ccc1CN1CC2(C1)CN(C(C)=O)C2", "=", 6.59],
  ["COc1nc(-c2cccc(-c3ccnc(-c4ccc5nc([C@H]6N[C@@H]7CC[C@H]6C7)[nH]c5c4)c3Cl)c2Cl)ccc1CNC[C@@H]1CCC(=O)N1", "≤", 5.00]
]}
